Entry source: patent US20190177410A1

Target: T1, full-length human APLNR (hAPLNR) (human, UniProt P35414 1-380)
T1 sequence: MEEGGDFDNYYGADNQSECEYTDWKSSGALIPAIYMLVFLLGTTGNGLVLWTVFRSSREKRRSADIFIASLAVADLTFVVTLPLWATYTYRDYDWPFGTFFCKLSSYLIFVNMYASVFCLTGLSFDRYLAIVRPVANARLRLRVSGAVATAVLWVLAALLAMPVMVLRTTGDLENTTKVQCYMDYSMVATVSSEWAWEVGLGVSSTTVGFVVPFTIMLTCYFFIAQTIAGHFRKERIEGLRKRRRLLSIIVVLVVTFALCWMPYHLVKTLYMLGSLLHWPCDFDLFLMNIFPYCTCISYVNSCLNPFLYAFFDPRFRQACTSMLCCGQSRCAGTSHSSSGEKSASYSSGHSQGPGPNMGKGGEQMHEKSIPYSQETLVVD
Test: cell-based or functional assay
assayReadout: % Activation at 500 nM mAb (at 7.5 uM Forskolin), CRE-luc (%)
Quick note: give the figure in %, leave out the unit.

binder | valueUnit | reported
H2aM9223N (antibody, mouse IgG2a, V domains shown) VH: EVQLVESGGGLVQPGGSLRLSCAASGFTFSSFWMSWVRQVPGKGLEWVANIKQDGSEKYYVDSVKGRFTISRDNAKNSLYLQMNSLRAEDTAVYYCARDRFGYSVYDKGVRYYYGMDVWGQGTTVTVSS VL: DIQMTQSPSSLSVSVGDRVTITCRASQGIRNDLGWYQQKPGKAPKRLIYAASSLQSGVPSRFSGSGSGTEFTLTISGLQSEDFATYYCLQHKSYPRTFGQGTKVEIK | % | 39
H2aM9225N (antibody, mouse IgG2a, V domains shown) VH: EVQLEESGGGLVQPGGSLRLSCAASGFTFTSFWMSWVRQVPGKGLQWVANIKQDGTEKYYVDSVKGRFTISRDNAKNSLYLQMNSLRAEDTAVYYCARERFGYSLFDKGVRYYYGMDVWGQGTSVTVSS VL: DIQMTQSPSSLSASVGDRVTITCRASQGIRNDLGWYQQKPGKAPKRLIYAASSLQSGVPSRFSGSGSGTEFTLTISGLQPEDFATYYCLQHNSYPRTFGQGTKVEIK | % | 69

Incoming: Could you share which % Activation at 500 nM mAb (at 7.5 uM Forskolin), CRE-luc value was measured for H2aM9229N (antibody, mouse IgG2a, V domains shown) VH: EVQLVESGGGLVQPGGSLRLSCVASGFTFNNYWMSWVRQAPGKGLEWVANIKQDGSERYYVDSVKGRFTISRGDAKNSLYLQMKSLRAEDTAVYFCARDRFGYSFYDKGVRYYYGMDVWGQGTTVTVSS VL: DIQMTQSPSSLSASVGDRVTITCRASQGIRNDLGWYQQRPGKAPKRLIYAASSLQTGVPSRFSGSGSGTEFTLTISGLQPDDFATYYCLQHNSYPRTFGQGTKVEIR ?
Outgoing: 66
